Test system: Saccharomyces cerevisiae
Assay: protein stability index of tFT-peptide fusion (C-terminal peptide) (PSI (0-1 scale)); higher = more stable (slower turnover)
Details: genetic background: wild type; temperature: 30 C
Property Measured: protein stability index

Consider the worked cases shown below.
QUERY: Using the record for `VWVFGLGLGRVV` , report its protein stability index.
RESULT: 0.691

QUERY: Using the record for `PPRPLAPSPTLF` , report its protein stability index.
RESULT: 0.679

Alright, here's another sequence for you.
QUERY: Using the record for `PSGCIPCNVGVS` , report its protein stability index.
RESULT: 0.705

----------
Tested on: Saccharomyces cerevisiae;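 note: PSI is a weighted mean of sequencing reads over stability bins, variants kept only with over 10 reads, mCherry proximal and sfGFP distal, peptide attached via GGGS linker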
Assay: protein stability index of tFT-peptide fusion (C-terminal peptide) (PSI (0-1 scale)); higher = more stable (slower turnover)
Conditions: genetic background: wild type; temperature: 30 C
Reported protein stability index values for the following sequences.
Format: numeric value only, no unit, no commentary.

Consider the worked cases shown below.
QUERY: Using the record for `NSEKKKKRKEKK` , report its protein stability index.
RESULT: 0.731

QUERY: Using the record for `CPSHPDCFPDRL` , report its protein stability index.
RESULT: 0.679

QUERY: Using the record for `SRSAQAGFKVFN` , report its protein stability index.
RESULT: 0.712

QUERY: Using the record for `ELLKQRTRKRQK` , report its protein stability index.
RESULT: 0.693

QUERY: Using the record for `KKSRLRNNPADC` , report its protein stability index.
RESULT: 0.7

QUERY: Using the record for `IPPFRLLCRLRL` , report its protein stability index.
RESULT: 0.642

Continuing:
QUERY: Using the record for `AVWSLMRCREFV` , report its protein stability index.
RESULT: 0.652

QUERY: Using the record for `TYFMSAFWPPGV` , report its protein stability index.
RESULT: 0.631

QUERY: Using the record for `RCAIMGRGGIVT` , report its protein stability index.
RESULT: 0.686

QUERY: Using the record for `PPLPPHPPPGQQ` , report its protein stability index.
RESULT: 0.697

QUERY: Using the record for `FFFLPILKSPSR` , report its protein stability index.
RESULT: 0.714

QUERY: Using the record for `DSTLLYRPPSPA` , report its protein stability index.
RESULT: 0.709
